Reference source for all entries: patent US5840697A

- ASSAY_SYSTEM: calmodulin (Homo sapiens, UniProt P0DP23)
- EXPERIMENT_DESCRIPTION: calcium-dependent phosphodiesterase assay (calmodulin activity)
- Format: biochemical
- MEASUREMENT_CONDITIONS: Table II; (L)-amino acid peptides, concentrations 0.2 to 50.0 μM; read-out: IC50
- Method: In the calcium dependent phosphodiesterase assay, calmodulin can be assayed by its ability to stimulate phosphodiesterase activity as determined by a two-step assay procedure illustrated by reactions (1) and (2) below. [drawing 1] […] In addition to the calcium-dependent phosphodiesterase assay data, IC50 values were determined for many of the peptides. […]
Peptide text beside a SMILES is read from it.
IC50 for assorted molecules
ASSAY_ENDPOINT: IC50 (nM)

# MOLECULE, RECORDED_VALUE
data = [
    ("CC[C@H](C)[C@H](NC(=O)[C@H](CCC(N)=O)NC(=O)[C@H](CC(C)C)NC(C)=O)C(=O)N[C@@H](Cc1c[nH]cn1)C(=O)N[C@@H](CC(C)C)C(=O)N[C@@H](CCCNC(=N)N)C(N)=O [Ac-Leu-Gln-Ile-His-Leu-Arg-NH2] (Ac-LQIHLR-NH2)", 87000),
    ("CC(=O)N[C@@H](CC(C)C)C(=O)N[C@@H](Cc1c[nH]c2ccccc12)C(=O)N[C@@H](CCCNC(=N)N)C(=O)N[C@@H](Cc1c[nH]cn1)C(=O)N[C@@H](CC(C)C)C(=O)N[C@@H](Cc1c[nH]c2ccccc12)C(N)=O [Ac-Leu-Trp-Arg-His-Leu-Trp-NH2] (Ac-LWRHLW-NH2)", 1150),
    ("CC[C@H](C)[C@H](NC(=O)[C@H](CCCNC(=N)N)NC(=O)[C@H](Cc1c[nH]c2ccccc12)NC(=O)[C@H](CC(C)C)NC(C)=O)C(=O)N[C@@H](CC(C)C)C(=O)N[C@@H](CCCNC(=N)N)C(N)=O [Ac-Leu-Trp-Arg-Ile-Leu-Arg-NH2] (Ac-LWRILR-NH2)", 2890),
    ("CC(=O)N[C@@H](CC(C)C)C(=O)N[C@@H](Cc1c[nH]c2ccccc12)C(=O)N[C@@H](CCCNC(=N)N)C(=O)N[C@@H](Cc1c[nH]cn1)C(=O)N[C@@H](Cc1c[nH]cn1)C(=O)N[C@@H](Cc1c[nH]c2ccccc12)C(N)=O [Ac-Leu-Trp-Arg-His-His-Trp-NH2] (Ac-LWRHHW-NH2)", 1160),
    ("CC[C@H](C)[C@H](NC(=O)[C@H](CCCNC(=N)N)NC(=O)[C@H](Cc1c[nH]c2ccccc12)NC(=O)[C@H](CC(C)C)NC(C)=O)C(=O)N[C@@H](CC(C)C)C(=O)N[C@@H](Cc1c[nH]c2ccccc12)C(N)=O [Ac-Leu-Trp-Arg-Ile-Leu-Trp-NH2] (Ac-LWRILW-NH2)", 880),
]

* * *

- ASSAY_SYSTEM: calmodulin (Homo sapiens, UniProt P0DP23)
- EXPERIMENT_DESCRIPTION: calcium-dependent phosphodiesterase assay (calmodulin activity)
- Format: biochemical
- MEASUREMENT_CONDITIONS: Table III; in the presence of calmodulin; read-out: IC50 (μM) for calmodulin
Square brackets hold non-standard residues; d marks the D form. Peptide text beside a SMILES is read from it.
Reported IC50 values for the following compounds.
ASSAY_ENDPOINT: IC50 (µM)

# COMPOUND, ASSAY_ENDPOINT, MEASURE_UNIT, RECORDED_VALUE
measured = [
    ("CC[C@@H](C)[C@@H](NC(=O)[C@@H](CCC(N)=O)NC(=O)[C@@H](CC(C)C)NC(C)=O)C(=O)N[C@H](Cc1c[nH]cn1)C(=O)N[C@H](CC(C)C)C(=O)N[C@H](CCCNC(=N)N)C(N)=O (Ac-[dL][dQ][dI][dH][dL][dR]-NH2)", "IC50", "µM", 43),
    ("CC[C@@H](C)[C@@H](NC(=O)[C@@H](Cc1c[nH]c2ccccc12)NC(=O)[C@@H](CC(C)C)NC(C)=O)C(=O)N[C@@H](C(=O)N[C@H](CC(C)C)C(=O)N[C@H](Cc1c[nH]c2ccccc12)C(N)=O)[C@H](C)CC (Ac-[dL][dW][dI][dI][dL][dW]-NH2)", "IC50", "µM", 29),
    ("CC[C@@H](C)[C@@H](NC(=O)[C@@H](CCCNC(=N)N)NC(=O)[C@@H](Cc1c[nH]c2ccccc12)NC(=O)[C@@H](CC(C)C)NC(C)=O)C(=O)N[C@H](CC(C)C)C(=O)N[C@H](CCCNC(=N)N)C(N)=O (Ac-[dL][dW][dR][dI][dL][dR]-NH2)", "IC50", "µM", 4.8),
    ("CC[C@@H](C)[C@@H](NC(=O)[C@@H](CCCNC(=N)N)NC(=O)[C@@H](Cc1c[nH]c2ccccc12)NC(=O)[C@@H](CC(C)C)NC(C)=O)C(=O)N[C@H](Cc1c[nH]cn1)C(=O)N[C@H](Cc1c[nH]c2ccccc12)C(N)=O (Ac-[dL][dW][dR][dI][dH][dW]-NH2)", "IC50", "µM", 1.2),
    ("CC[C@@H](C)[C@@H](NC(=O)[C@@H](Cc1c[nH]c2ccccc12)NC(=O)[C@@H](CC(C)C)NC(C)=O)C(=O)N[C@H](Cc1c[nH]cn1)C(=O)N[C@H](Cc1c[nH]cn1)C(=O)N[C@H](Cc1c[nH]c2ccccc12)C(N)=O (Ac-[dL][dW][dI][dH][dH][dW]-NH2)", "IC50", "µM", 12),
    ("CC[C@@H](C)[C@@H](NC(=O)[C@@H](CCCNC(=N)N)NC(=O)[C@@H](Cc1c[nH]c2ccccc12)NC(=O)[C@@H](CC(C)C)NC(C)=O)C(=O)N[C@H](CC(C)C)C(=O)N[C@H](Cc1c[nH]c2ccccc12)C(N)=O (Ac-[dL][dW][dR][dI][dL][dW]-NH2)", "IC50", "µM", 7.1),
    ("CC(=O)N[C@H](CC(C)C)C(=O)N[C@H](Cc1c[nH]c2ccccc12)C(=O)N[C@H](CCCNC(=N)N)C(=O)N[C@H](Cc1c[nH]cn1)C(=O)N[C@H](CC(C)C)C(=O)N[C@H](Cc1c[nH]c2ccccc12)C(N)=O (Ac-[dL][dW][dR][dH][dL][dW]-NH2)", "IC50", "µM", 6.7),
    ("CC(=O)N[C@@H](CC(C)C)C(=O)N[C@@H](Cc1c[nH]c2ccccc12)C(=O)N[C@@H](CCCNC(=N)N)C(=O)N[C@@H](Cc1c[nH]cn1)C(=O)N[C@@H](CC(C)C)C(=O)N[C@@H](Cc1c[nH]c2ccccc12)C(N)=O [Ac-Leu-Trp-Arg-His-Leu-Trp-NH2] (Ac-LWRHLW-NH2)", "IC50", "µM", 1.1),
    ("CC[C@@H](C)[C@@H](NC(=O)[C@@H](CCC(N)=O)NC(=O)[C@@H](CC(C)C)NC(C)=O)C(=O)N[C@@H](C(=O)N[C@H](CC(C)C)C(=O)N[C@H](Cc1c[nH]c2ccccc12)C(N)=O)[C@H](C)CC (Ac-[dL][dQ][dI][dI][dL][dW]-NH2)", "IC50", "µM", 25),
]
